# assay.target: human metabotropic glutamate receptor 5 (hmGluR5)
# assay.comment: Calcium mobilization (FLIPR) assay, negative allosteric modulation of the EC80 glutamate response
# particulars: HEK 293 cells, inhibition of EC80 glutamate response
endpoint.name: IC50 (µM)

[a] Cc1nc(C#Cc2ccccc2)sc1C(=O)N1CCCCC1
[b] O=C(c1cnc(C#Cc2ccccc2)s1)N1CC[C@@H](F)C1
Compare a and b by numeric IC50 and name the larger one. // respond with label for picked entry a

[a] Cc1cccc(C#Cc2ncc(C(=O)N3CCCCC3)s2)n1
[b] Cc1cccc(C#Cc2ncc(C(=O)NC3CCCC3)s2)c1
Between a and b , which one shows the smaller IC50 number? // respond with label for picked entry b
(b: 0.0007 µM, a: 0.029 µM)

These measurements were taken from patent US8440837B2.
